Numbers sourced from PubChem BioAssay (NCI).

Entries and their TGI values follow.
Test system: DMS 273 small cell lung
Experiment: NCI tumour cell line growth inhibition, 48 h

Find the recorded TGI belonging to N=C1CSC2=NC3=C(CCC/C3=C\c3ccccc3)C(c3ccccc3)N12 (centres undefined) and report it. 15.8 µM

Which TGI is reported for this compound? Cc1cc(N(CCOS(C)(=O)=O)CCOS(C)(=O)=O)ccc1C=Nc1ccc(-c2nc(Cc3ccccc3)sc2C)cc1 21.7 µM

Which TGI value is on record for O=C(N/N=C/c1ccccc1O)c1cccc([N+](=O)[O-])c1 ? > 100 µM

Given the entry CCCCCCCCCCCC(=O)CC(=O)c1c(O)cccc1O , report its measured TGI. 32.6 µM

Field request: TGI | item: CC1=C(O)C(=O)[C@@H]2O[C@@H]2C1=O 62.3 µM

What does the record list as TGI for Clc1ccc(C2N3CCCCC3[C@@H]3c4[nH]c5ccccc5c4CCN23)cc1 (some centres undefined) ? > 100 µM

I would be grateful if you could share the reported TGI for NC(N)=NS(=O)(=O)c1ccc(NCc2c3ccccc3[n+]([O-])c3ccccc23)cc1 . > 100 µM
